Collected pKi values appear next to each entry.
Biological target: tau (Homo sapiens)
Sequence (P10636 2-758 limits assumed): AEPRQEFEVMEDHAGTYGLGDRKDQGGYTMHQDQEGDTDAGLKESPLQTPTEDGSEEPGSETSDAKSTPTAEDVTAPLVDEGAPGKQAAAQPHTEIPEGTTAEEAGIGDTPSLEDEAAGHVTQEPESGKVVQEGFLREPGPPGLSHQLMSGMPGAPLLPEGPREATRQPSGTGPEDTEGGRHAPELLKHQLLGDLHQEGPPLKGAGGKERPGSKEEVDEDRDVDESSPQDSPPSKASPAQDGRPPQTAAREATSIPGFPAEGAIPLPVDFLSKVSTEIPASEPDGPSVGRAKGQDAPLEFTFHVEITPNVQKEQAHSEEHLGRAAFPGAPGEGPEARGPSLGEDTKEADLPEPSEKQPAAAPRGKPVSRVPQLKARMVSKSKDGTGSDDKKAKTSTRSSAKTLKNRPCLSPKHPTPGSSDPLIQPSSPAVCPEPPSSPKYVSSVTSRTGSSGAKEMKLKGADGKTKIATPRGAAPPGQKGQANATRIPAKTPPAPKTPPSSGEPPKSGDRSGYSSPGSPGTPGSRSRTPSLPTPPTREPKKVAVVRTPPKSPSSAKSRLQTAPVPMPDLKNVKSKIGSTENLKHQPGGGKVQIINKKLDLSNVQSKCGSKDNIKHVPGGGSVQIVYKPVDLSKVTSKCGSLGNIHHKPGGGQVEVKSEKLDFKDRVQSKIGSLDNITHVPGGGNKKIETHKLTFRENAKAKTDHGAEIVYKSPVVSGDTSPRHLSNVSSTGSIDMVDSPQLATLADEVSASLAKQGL
Test: displacement tau binding assay in AD brain homogenates with [^3H]-6
Details: Table 2, displacement of [^3H]-6 (0.25 nM)
Please treat pKi as minus the base-10 logarithm of the molar concentration.

Observe how each entry below is paired with its result.
compound: Nc1ccc(I)c2cc(-n3ccc4ccncc43)ncc12 [Compound 120]
measured_quantity: pKi
numeric_value: 7.03
--
compound: Nc1c(I)ccc2cnc(-n3ccc4ccncc43)cc12 [Compound 119]
measured_quantity: pKi
numeric_value: 9.36
--
compound: COc1cc2ccn(-c3cc4cc(F)ccc4cn3)c2cn1 [Compound 130]
measured_quantity: pKi
numeric_value: 8.39

Pending compound:
Q: Name the recorded pKi for Nc1cc2cc(-n3ccc4ccncc43)ncc2cc1F [Compound 109] .
A: 9.37
